- assay.explanation: Toxicity in brine shrimp
- Type: organism-based
- experimental.context: artemia, in vivo
measurement.type: LC50 (µg/mL)

compound	measurement.type	recorded.measurement
CCCCCCCCCC/C=C\CC[C@@H](O)[C@H]1CC[C@H]([C@H](O)CCCCC(O)CCCCC[C@@H](O)CC2=C[C@H](C)OC2=O)O1 (some centres not stated)	LC50	0.77
CCCCCCCCCC/C=C\CC[C@@H](O)[C@H]1CC[C@H]([C@H](O)CCCCCCC(O)CCC[C@@H](O)CC2=C[C@H](C)OC2=O)O1 (some centres not stated)	LC50	0.871

// provenance: ChEMBL document CHEMBL1150072
